MEASUREMENT_SETUP: in methanol, 295.15 K
QUANTITY_KIND: solubility (mole fraction)
Form field (numeric): enter value without unit.

Task item: Any idea what solubility (mole fraction) was measured for CC(=O)O[C@H]1CC[C@@]2(C)C(=CC[C@@H]3[C@@H]2CC[C@]2(C)C(C(C)=O)=CC[C@@H]32)C1 ?
Reply: 0.000779

----------
MEASUREMENT_SETUP: in ethanol, 289.85 K
QUANTITY_KIND: solubility (mole fraction)
Respond numerically, and do not add a unit to the figure.

Task item: Could you share which solubility (mole fraction) value was measured for CC(=O)O[C@H]1CC[C@@]2(C)C(=CC[C@@H]3[C@@H]2CC[C@]2(C)C(C(C)=O)=CC[C@@H]32)C1 ?
Reply: 0.00128

----------
MEASUREMENT_SETUP: in cyclohexane, 312.95 K
QUANTITY_KIND: solubility (mole fraction)
Field format: numeric only.

Task item: I'd like to know its solubility (mole fraction). The compound in question is CC(=O)O[C@H]1CC[C@@]2(C)C(=CC[C@@H]3[C@@H]2CC[C@]2(C)C(C(C)=O)=CC[C@@H]32)C1
Reply: 0.00574

----------
MEASUREMENT_SETUP: in ethanol, 304.55 K
QUANTITY_KIND: solubility (mole fraction)
Respond using a number only.

Task item: State the recorded solubility (mole fraction) for this entry: CC(=O)O[C@H]1CC[C@@]2(C)C(=CC[C@@H]3[C@@H]2CC[C@]2(C)C(C(C)=O)=CC[C@@H]32)C1
Reply: 0.0024

----------
MEASUREMENT_SETUP: in acetone, 278.55 K
QUANTITY_KIND: solubility (mole fraction)
Number only, please.

Task item: Which measured solubility (mole fraction) value corresponds to CC(=O)O[C@H]1CC[C@@]2(C)C(=CC[C@@H]3[C@@H]2CC[C@]2(C)C(C(C)=O)=CC[C@@H]32)C1 ?
Reply: 0.00427

----------
MEASUREMENT_SETUP: in cyclohexane, 322.95 K
QUANTITY_KIND: solubility (mole fraction)
Note: the reply should be a number with no unit written.

Task item: Quick one: solubility (mole fraction) for CC(=O)O[C@H]1CC[C@@]2(C)C(=CC[C@@H]3[C@@H]2CC[C@]2(C)C(C(C)=O)=CC[C@@H]32)C1 ?
Reply: 0.00878

----------
MEASUREMENT_SETUP: in methanol, 312.15 K
QUANTITY_KIND: solubility (mole fraction)
API note: the answer field is a bare number with no unit suffix.

Task item: // query solubility (mole fraction) value for entry CC(=O)O[C@H]1CC[C@@]2(C)C(=CC[C@@H]3[C@@H]2CC[C@]2(C)C(C(C)=O)=CC[C@@H]32)C1
Reply: 0.0016

----------
MEASUREMENT_SETUP: in acetone, 291.75 K
QUANTITY_KIND: solubility (mole fraction)
Lab note: record the figure alone, no unit after it.

Task item: Can you look up the measured solubility (mole fraction) of CC(=O)O[C@H]1CC[C@@]2(C)C(=CC[C@@H]3[C@@H]2CC[C@]2(C)C(C(C)=O)=CC[C@@H]32)C1 for me?
Reply: 0.00678

----------
MEASUREMENT_SETUP: in ethanol, 297.65 K
QUANTITY_KIND: solubility (mole fraction)
# print the numeric value only

Task item: Would you kindly share the measured solubility (mole fraction) for CC(=O)O[C@H]1CC[C@@]2(C)C(=CC[C@@H]3[C@@H]2CC[C@]2(C)C(C(C)=O)=CC[C@@H]32)C1 ?
Reply: 0.00185

----------
MEASUREMENT_SETUP: in ethanol, 314.15 K
QUANTITY_KIND: solubility (mole fraction)

Task item: GET /values?readout=solubility (mole fraction)&item= CC(=O)O[C@H]1CC[C@@]2(C)C(=CC[C@@H]3[C@@H]2CC[C@]2(C)C(C(C)=O)=CC[C@@H]32)C1
Reply: 0.00371

----------
MEASUREMENT_SETUP: in ethanol, 324.55 K
QUANTITY_KIND: solubility (mole fraction)
Reply with just the number.

Task item: Which solubility (mole fraction) is listed for CC(=O)O[C@H]1CC[C@@]2(C)C(=CC[C@@H]3[C@@H]2CC[C@]2(C)C(C(C)=O)=CC[C@@H]32)C1 ?
Reply: 0.00583

----------
MEASUREMENT_SETUP: in methanol, 299.95 K
QUANTITY_KIND: solubility (mole fraction)
Give the figure only, with no unit attached.

Task item: Please give the measured solubility (mole fraction) for this compound: CC(=O)O[C@H]1CC[C@@]2(C)C(=CC[C@@H]3[C@@H]2CC[C@]2(C)C(C(C)=O)=CC[C@@H]32)C1
Reply: 0.000965

----------
MEASUREMENT_SETUP: in methanol, 315.55 K
QUANTITY_KIND: solubility (mole fraction)
Number, no unit, nothing else.

Task item: For the compound CC(=O)O[C@H]1CC[C@@]2(C)C(=CC[C@@H]3[C@@H]2CC[C@]2(C)C(C(C)=O)=CC[C@@H]32)C1 , what solubility (mole fraction) is on record?
Reply: 0.00185
